System: Vero E6 infected with SARS-CoV-2
EXPERIMENT_DESCRIPTION: inhibition of SARS-CoV-2 cytopathic effect; higher = more antiviral protection, active = above 15
CONDITION_INFO: 10000 nM; 48 h
Would you kindly list inhibition of SARS-CoV-2 cytopathic effect for each of these molecules?
Numbers only, in %.

CC[C@]12CCCN3CCc4c(n(c5ccccc45)C(=O)C1)[C@@H]32 [vinburnine]: -0.52
CC(=O)Oc1cc(C(F)(F)F)ccc1C(=O)O [triflusal]: 4.74

Hey, can you go through the list below and give me inhibition of SARS-CoV-2 cytopathic effect for every item?
1. COC(=O)/C=C/C(=O)OCCN1C(=O)CCC1=O [diroximel-fumarate]
2. CN(C)CCOc1cc(-c2cn[nH]c2)ccc1NC(=O)C1COc2ccccc2O1 (centres undefined)

1. 11.3
2. -6.4

Hey, can you go through the list below and give me inhibition of SARS-CoV-2 cytopathic effect for every item?
1. CCOC(=O)c1cc(C#N)c(N2CCC(C(=O)NS(=O)(=O)Cc3ccccc3)CC2)nc1C
2. COc1cc(OC)cc(N(CCNC(C)C)c2ccc3ncc(-c4cnn(C)c4)nc3c2)c1 [erdafitinib]
3. O[C@@H]1[C@H](O)[C@@H](CCl)O[C@H]1n1cnc2c(NC3CC4CCC3C4)ncnc21 (mixture of isomers) [5'-chloro-5'-deoxy-ENBA-(+/-)]
4. CC(C)=CCC/C(C)=C/CNCCNC1C2CC3CC(C2)CC1C3 (centres undefined)
5. O=c1ccc2cc3ccoc3cc2o1 [psoralen]

1: -2.86; 2: 11.7; 3: -3.73; 4: 0.17; 5: -0.41

---

Test system: Vero E6 infected with SARS-CoV-2
EXPERIMENT_DESCRIPTION: SARS-CoV-2 infection rate relative to infected DMSO; higher = more infection, active = 60 or less
CONDITION_INFO: 24 h
Would you kindly list SARS-CoV-2 infection rate for each of these molecules?
Give bare numbers, in %.

Clc1ccc(-c2nc3sccn3c2/C=N/OCc2ccc(Cl)c(Cl)c2)cc1 (10 µM): 107
O=c1cccc2n1C[C@@H]1CNC[C@H]2C1 [cytisine] (10 µM): 114
N#Cc1ccccc1OCC(O)CNCCNC(=O)Nc1ccccc1 (configuration not stated) (10 µM): 109
CC[C@H]1OC(=O)[C@@](C)(F)C(=O)[C@H](C)[C@@H](O[C@@H]2O[C@H](C)C[C@H](N(C)C)[C@H]2O)[C@](C)(OC)C[C@@H](C)C(=O)[C@H](C)[C@H]2N(CCCCn3cc(-c4cccc(N)c4)nn3)C(=O)O[C@]12C [solithromycin] (10 µM): 104
CCCN(CCC)CCc1ccc(OC)c(OCCc2ccccc2)c1 (10 µM): 86.5
O=C1OC(c2ccc(O)cc2)(c2ccc(O)cc2)c2ccccc21 [phenolphthalein] (10 µM): 110

Annotate the molecule O=C1C[C@@H]2OCC=C3CN4CC[C@]56c7ccccc7N1[C@H]5[C@H]2[C@H]3C[C@H]46 [strychnine] (10 µM) with its measured SARS-CoV-2 infection rate.
90

---

System: Vero E6 infected with SARS-CoV-2
EXPERIMENT_DESCRIPTION: inhibition of SARS-CoV-2 cytopathic effect; higher = more antiviral protection, active = above 15
CONDITION_INFO: 1 nM; 48 h
Would you kindly list inhibition of SARS-CoV-2 cytopathic effect for each of these molecules?
Answers are plain numbers, in %.

OC[C@H]1NCC[C@@H](O)[C@@H]1O [fagomine]: -1.09
COC(=O)[C@@H]1[C@H]2C[C@H]3c4[nH]c5ccccc5c4CCN3C[C@@H]2CC[C@@H]1O [yohimbine]: 0.18
Cc1nc(C#Cc2ccnc(Cl)c2)c(C)n1-c1ccc(F)cc1 [basimglurant]: -0.13
Nc1ccn([C@H]2CC[C@@H](CO)O2)c(=O)n1 [zalcitabine]: -0.47
O=C(Nc1cnccc1Cl)N1CCN(Cc2ccc3c(c2)OC(F)(F)O3)CC1: 1.58
CCCC(C)C1(CC)C(=O)NC(=O)NC1=O (centres undefined) [pentobarbital]: 2.05
CN1CCN(C(=O)c2cc3cc(Cl)ccc3[nH]2)CC1: -0.68
Cc1sc(C)c(C(=O)NC2(c3ccc(C(=O)O)cc3)CC2)c1Cc1ccc(C(F)(F)F)cc1: -1.32
CN(C)C(=N)NC(=N)N [metformin]: 0.25
COc1cc(-c2ccc(=O)[nH]n2)ccc1OC(F)F [zardaverine]: 0.13

Hey, can you go through the list below and give me inhibition of SARS-CoV-2 cytopathic effect for every item?
1. CN(C)Cc1cccc(N=C(c2ccccc2)c2c(O)[nH]c3cc(C(=O)N(C)C)ccc23)c1
2. CC(C)CN(C[C@@H](OP(=O)(O)O)[C@H](Cc1ccccc1)NC(=O)O[C@H]1CCOC1)S(=O)(=O)c1ccc(N)cc1 [fosamprenavir]
3. CN1[C@H]2C[C@H](OC(=O)[C@H](CO)c3ccccc3)C[C@@H]1[C@@H](O)C2 [anisodamine]
4. C[C@]12CCC(=O)C=C1CC[C@@H]1[C@@H]2C(=O)C[C@]2(C)C(=O)CC[C@@H]12 [adrenosterone]
5. COc1cc2c(cc1OC)C(=O)C(CC1CCN(Cc3ccccc3)CC1)C2 (centres undefined) [donepezil]

1. 1.09
2. -0.69
3. 1.04
4. 0.47
5. -2.44

Hey, can you go through the list below and give me inhibition of SARS-CoV-2 cytopathic effect for every item?
1. CCN1CCN(c2ccc(Nc3cc(N(C)C(=O)Nc4c(Cl)c(OC)cc(OC)c4Cl)ncn3)cc2)CC1
2. c1cnc(NCc2ccc(CNc3ncccn3)cc2)nc1
3. CC[C@H](C)n1cc(C)c2c(C(=O)NCc3c(C)cc(C)[nH]c3=O)cc(-c3ccc(N4CCNCC4)nc3)cc21
4. NS(=O)(=O)c1ccc(-n2nc(C(F)(F)F)cc2-c2ccc(Cl)cc2)cc1

1. -2.08
2. -2.38
3. 1.2
4. 1.27

---

Test system: Vero E6 infected with SARS-CoV-2
EXPERIMENT_DESCRIPTION: inhibition of SARS-CoV-2 cytopathic effect; higher = more antiviral protection, active = above 15
CONDITION_INFO: 100 nM; 48 h
ENDPOINT_NAME: inhibition of SARS-CoV-2 cytopathic effect (%)
Give bare numbers, in %.

CCN1C(=O)CNc2ncc(-c3ccc(-c4nc[nH]n4)nc3C)nc21: 2.06
O=[N+]([O-])c1nccn1CC(O)CN1CCCCC1 (centres undefined): 1.45
CCN(CC)Cc1ccc(C(=O)N(CCc2ccccc2OC)[C@@H]2CCNC2)cc1: -1.66
COc1cccc(OC)c1OCCNC[C@H]1COc2ccccc2O1: 0.45
CCCCc1nc(-c2ccc(OCCCN(CC)CC)cc2)cn1-c1ccc(Oc2ccc(Cl)cc2)cc1: 1.43

Hey, can you go through the list below and give me inhibition of SARS-CoV-2 cytopathic effect for every item?
1. CCN(CC)CC#CCOC(=O)C(O)(c1ccccc1)C1CCCCC1 (centres undefined)
2. CCc1cccc(N(C)C(=N)Nc2cccc3ccccc23)c1
3. Nc1ncc2c(n1)CC(c1ccco1)CC2=O (centres undefined)
4. O=C(O)CC[C@H]1CC[C@@](c2cc(F)ccc2F)(S(=O)(=O)c2ccc(Cl)cc2)CC1
5. CC1=C(/C=C/C(C)=C/C=C/C(C)=C/CO)C(C)(C)CCC1
6. O=C(O)c1cc2occc2[nH]1

1. -0.11
2. 1.39
3. 2.68
4. -4.1
5. 0.03
6. -2.08

Hey, can you go through the list below and give me inhibition of SARS-CoV-2 cytopathic effect for every item?
1. N[C@@H]1[C@H]2CN(c3nc4c(cc3F)c(=O)c(C(=O)O)cn4-c3ccc(F)cc3F)C[C@@H]12
2. O=C(Nc1cccc(C(F)(F)F)c1)Nc1cc(S(=O)(=O)NC2CC2)ccc1-c1ccsc1
3. CCCCC#Cc1nc(NC)c2ncn([C@@H]3O[C@H](CO)[C@@H](O)[C@H]3O)c2n1

-4.83
0.27
0.37

Hey, can you go through the list below and give me inhibition of SARS-CoV-2 cytopathic effect for every item?
1. CC(/C=C/C(=O)NO)=C\[C@@H](C)C(=O)c1ccc(N(C)C)cc1
2. O=C(O)C(=O)Nc1cccc(-c2nnn[nH]2)c1
3. C[C@@H]1C[C@H]2[C@@H]3CCC4=CC(=O)C=C[C@]4(C)[C@@]3(F)[C@@H](O)C[C@]2(C)[C@@]1(O)C(=O)COP(=O)(O)O
4. CN(N=O)C(=O)N[C@@H](C=O)[C@@H](O)[C@H](O)[C@H](O)CO
5. CN1[C@@H]2CC[C@H]1C[C@@H](OC(=O)c1c[nH]c3ccccc13)C2

[-16, -0.76, -1.45, 2.59, 1.21]

---

Test system: Vero E6 infected with SARS-CoV-2
EXPERIMENT_DESCRIPTION: inhibition of SARS-CoV-2 cytopathic effect; higher = more antiviral protection, active = above 15
CONDITION_INFO: 8.33 nM; 48 h
Would you kindly list inhibition of SARS-CoV-2 cytopathic effect for each of these molecules?

CNC1CCCN(c2c(F)cc3c(=O)c(C(=O)O)cn(C4CC4)c3c2OC)C1 (configuration not stated): 0.66% (inactive)
CC(Oc1ccc(O)cc1)(P(=O)(O)O)P(=O)(O)O: -1.85% (inactive)
CN1C2CCCC1CC(NC(=O)c1nn(C)c3ccccc13)C2 (configuration not stated): 4.21% (inactive)
C[C@@]1(C(=O)O)NCCc2cc(O)c(O)cc21: -1.48% (inactive)
O=c1c(O[C@@H]2O[C@H](CO)[C@H](O)[C@H](O)[C@H]2O)c(-c2ccc(O)c(O)c2)oc2cc(O)cc(O)c12: 2.27% (inactive)
CS[C@H]1SC[C@H]2C(=O)N(C)[C@@H](C(C)C)C(=O)OC[C@@H](NC(=O)c3cnc4ccccc4n3)C(=O)N[C@@H](C)C(=O)N(C)[C@@H]1C(=O)N(C)[C@@H](C(C)C)C(=O)OC[C@@H](NC(=O)c1cnc3ccccc3n1)C(=O)N[C@@H](C)C(=O)N2C: -4.69% (inactive)

Next up:
Tell me inhibition of SARS-CoV-2 cytopathic effect of CC(C)c1noc(N2CCC(COc3ccc(-c4ccc(S(C)(=O)=O)cc4)nc3)CC2)n1 when tested on Vero E6 infected with SARS-CoV-2.
-1.84% (inactive)
